These data points were gathered from patent US20260242478A1.

Biological target: T1, PSMA Fab
T1 construct: In the panning ELISA the PSMA Fab was biotinylated and captured on neutravidin coated plates; also called Anti-PSMA Fab; 006 PSMA Fab
Assay: clonal phage ELISA on biotinylated PSMA Fab captured on neutravidin, anti-M13 HRP detection, wells pre-incubated with saturating PSMA antigen as competitor
Threshold check on Phage binding ELISA signal, Anti-PSMA Fab with PSMA antigen: strictly below 0.08 is T; on or above 0.08 is F.

[[record]]
binder = "VEIACKPQWMCLGF [Phage-3315]"
label_class = "T"

[[record]]
binder = "LLEMCKPHWMCVGF [Phage-3314]"
label_class = "F"

[[record]]
binder = "QEFRCVPEWMCIGL [Phage-3316]"
label_class = "T"

[[record]]
binder = "NWKVCEPTWMCEGF [Phage-3308]"
label_class = "T"

[[record]]
binder = "AEHVCRPAWMCTVF [Phage-3313]"
label_class = "T"

[[record]]
binder = "LEFRCVPEWMCVGF [Phage-3311]"
label_class = "F"

[[record]]
binder = "LQVMCVPRWMCEGF [Phage-3319]"
label_class = "F"

[[record]]
binder = "IEKLCKPQWMCEGF [Phage-3310]"
label_class = "F"

[[record]]
binder = "VERACVPAWMCTGF [Phage-3309]"
label_class = "F"

